Provide the recorded cytotoxicity at 70.5 h for the entries that follow.
assay: Human HepG2 cell viability assay in 384 well format; type: toxicity, cell-based; parameters: dose 125 nL, time 70.5 hour; concentration not given beside the values; details: HepG2 cells, read-out: Inhibition
Answer shape: numeric part, then the unit.

Completed entries (count: 6):
{"MOLECULE": "COc1ccc(-c2cc(C[C@@H]3C[C@H](N(C)C)C3(C)C)no2)cc1", "ASSAY RESULT": "5.02%"}
{"MOLECULE": "COc1ncnc2c1CCN(c1cccc(F)c1)CC2", "ASSAY RESULT": "-6.07%"}
{"MOLECULE": "CC(=O)N1CCC(NC(=O)Cc2csc(C(C)(C)C)n2)CC1", "ASSAY RESULT": "-6.85%"}
{"MOLECULE": "CC(C)(C)NC(=O)N1CCC(Oc2ccc(C(F)(F)F)cn2)CC1", "ASSAY RESULT": "-6.24%"}
{"MOLECULE": "Cc1ccccc1-c1cc(NC(=O)NC2CC2)n(CCO)n1", "ASSAY RESULT": "1.97%"}
{"MOLECULE": "Cc1cc(C(=O)NC(C)CC(=O)c2cccs2)n(C)n1 (centres undefined)", "ASSAY RESULT": "-12.7%"}

Parameter requested: cytotoxicity at 70.5 h. Apply to each item below.
1. Cc1c(CN(C)C(=O)c2ccnn2C)cnn1C
2. CCc1cnc(CN(C(C)=O)C2CCN(CCc3ccncc3)C2)o1 (centres undefined)
3. Cc1cc2ccncc2n1CC1(O)CCN(C(=O)c2cccnc2)CC1

1: 6.18%; 2: -1.81%; 3: -0.954%

---

experiment: Human HepG2 cell viability assay in 384 well format; assay type: toxicity, cell-based; set-up: dose 125 nL, time 70.5 hour; concentration not given beside the values; conditions: HepG2 cells, read-out: Inhibition
For each of the compounds below, state its cytotoxicity at 70.5 h.
Give bare numbers, in %.

{"COMPOUND": "CCc1n[nH]c(C2CN(C(=O)c3cnn(CC)c3)CCO2)n1 (stereo not drawn)", "UNITS SYMBOL": "%", "cytotoxicity at 70.5 h": 19.6}
{"COMPOUND": "O=C(CCc1cccs1)Nc1ccnn1C1CCS(=O)(=O)C1 (stereo not drawn)", "UNITS SYMBOL": "%", "cytotoxicity at 70.5 h": -1.32}
{"COMPOUND": "CC(=O)N(Cc1ncc(C)o1)C1CCN(CCn2cccn2)C1 (stereo not drawn)", "UNITS SYMBOL": "%", "cytotoxicity at 70.5 h": 9.96}
{"COMPOUND": "CCCc1nnc(NC2CCN(CCO)CC2)o1", "UNITS SYMBOL": "%", "cytotoxicity at 70.5 h": -6.74}

// for each compound below, give its cytotoxicity at 70.5 h
1. Cn1cccc1C(=O)NCc1cn2c(n1)CN(Cc1cccnc1)CC2
2. Cc1cccnc1NC(=O)C1CCCN1Cc1ccccc1 (stereo not drawn)
3. Cn1c(CCNc2nccnc2C#N)nc2cc(Cl)ccc21

-12.8
8.68
-0.473

cytotoxicity at 70.5 h lookup needed for CCCN1CCc2nc(SCc3ccccc3)[nH]c(=O)c2C1 , thanks.
8.44

---

assay: Human HepG2 cell viability assay in 384 well format; type: toxicity, cell-based; design: dose 125 nL, time 70.5 hour; concentration not given beside the values; conditions: HepG2 cells, read-out: Inhibition
MEASURE NAME: cytotoxicity at 70.5 h (%)
Numbers only, in %.

Solved entries (count: 3):
{"MOLECULE": "c1cc(C2CCN(Cc3ccc4c(c3)OCO4)CC2)ccn1", "ASSAY RESULT": -2.31}
{"MOLECULE": "CN(Cc1noc2c1CCCC2)C(=O)Nc1ccc2oc(=O)n(C)c2c1", "ASSAY RESULT": 20.6}
{"MOLECULE": "O=C(CN1CC(c2nc(-c3ccco3)no2)C1)NCC1CCCO1 (centres undefined)", "ASSAY RESULT": 13.7}

Which cytotoxicity at 70.5 h is listed for CC(C)c1ccc(-n2ncc(C(=O)N(C)C3CCN(C)CC3)c2N)cc1 ?
-2.55
